B1: SMARCE1 (parent)
chain: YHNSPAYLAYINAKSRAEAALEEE

variants of: B1; experiment: protein stability index of a GFP-peptide fusion (GPS, HEK-293T) (PSI 1-6); higher = more stable; settings: c terminus: a fixed tail appended;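 further: lentivirally expressed fusions sorted by FACS into six bins by GFP to DsRed ratio, PSI derived from sequencing read proportions per bin multiplied by bin number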
Assay readout: protein stability index
Respond numerically, and do not add a unit to the figure.

Return reported protein stability index; argument: P5I
2.05

What value of protein stability index has been recorded for this entry: S15R
2.04

Need protein stability index of S15T , thanks.
2

Consider the variant A19H and give its measured protein stability index.
2.02

// protein stability index lookup, key: N3L
1.95

Report protein stability index for L21M please.
2.04
